# assay-explanation: small-molecule microarray binders of probe aLefty2, primary screen, biochemical, biotinylated probe, 635/667 nm fluorescence (AID 1094);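 also: score merges spot fluorescence near 667 nm with spot signal-to-noise ratio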
# test-parameters: higher = more signal
assay-metric: composite z-score
Provide a numeric answer; units are not to be included.

Ask | Param item = COc1cc(C(O)C2C=CC3C(=O)N(Cc4ccccc4)C(=O)C3N2n2cnnc2)cc(OC)c1OC (stereo not drawn) ; retrieve measured composite z-score.
Reply | 0.327

Ask | Param item = COc1ccc(C(O)C2C=CC3C(=O)N(c4ccccc4)C(=O)C3N2Nc2ccc(C(C)C)cc2)c2ccccc12 (stereo not drawn) ; retrieve measured composite z-score.
Reply | 0.204

Ask | Param item = O=C1O[C@H](c2ccccc2)[C@H](c2ccccc2)N2[C@H]1[C@@H](C(=O)Nc1nc3ccccc3s1)[C@]1(C(=O)Nc3ccc(C#CC4=CCCCC4)cc31)[C@H]2c1ccc(O)cc1 ; retrieve measured composite z-score.
Reply | -0.12

Ask | Param item = COCCOC(=O)N1C(=O)[C@@]2(c3cc(C#Cc4ccc(OC)cc4)ccc31)[C@H](C(=O)NC[C@H](O)c1ccccc1)[C@H]1C(=O)O[C@H](c3ccccc3)[C@H](c3ccccc3)N1[C@@H]2c1ccc(OCCO)cc1 ; retrieve measured composite z-score.
Reply | -0.0412

Ask | Param item = COCCOC(=O)N1C(=O)[C@@]2(c3cc(C#CC4=CCCCC4)ccc31)[C@H](C(=O)N1CCCCCCC1)[C@H]1C(=O)O[C@H](c3ccccc3)[C@H](c3ccccc3)N1[C@@H]2c1ccc(OCCO)cc1 ; retrieve measured composite z-score.
Reply | 0.726

Ask | Param item = COc1ccc([Si](C)(C)[C@H]2[C@H](CC(=O)N3Cc4ccccc4C[C@H]3CO)O[C@@]3(C(=O)N(Cc4ccc(N5C(=O)c6cccc7cccc5c67)cc4)c4ccccc43)[C@@H]2C)cc1 ; retrieve measured composite z-score.
Reply | -0.178

Ask | Param item = CN1C(=O)C2C=CC(C(O)c3ccc(F)cc3)N(NC(=O)OC(C)(C)C)C2C1=O (stereo not drawn) ; retrieve measured composite z-score.
Reply | -0.0154

Ask | Param item = COCCOC(=O)N1C(=O)[C@@]2(c3cc(C#CCC(C(=O)OC)C(=O)OC)ccc31)[C@H](c1ccc(OCCO)cc1)N1[C@H](c3ccccc3)[C@H](c3ccccc3)OC(=O)[C@H]1[C@@H]2C(=O)Nc1nc2ccccc2s1 ; retrieve measured composite z-score.
Reply | -0.122

Ask | Param item = CN(C)CCCCCCNC(=O)[C@@H]1C[C@@H]2C(=O)N[C@@H](CCCCN)C(=O)N2[C@@H]1c1ccc(O)cc1 ; retrieve measured composite z-score.
Reply | 1.87

Ask | Param item = COC(=O)[C@@]1(Cc2ccccc2CN=[N+]=[N-])N=C(c2ccc(OCCCO)cc2)O[C@H]1c1ccccc1 ; retrieve measured composite z-score.
Reply | 0.547

Ask | Param item = COCC(=C=CC[C@@H](O)c1ccc(OCCO)cc1)CCO ; retrieve measured composite z-score.
Reply | -0.132

Ask | Param item = Cc1ccc(S[C@]2(C(=O)NC(C)C)CC(=O)N(C(C)C)[C@@H]2c2ccc(CO)cc2I)cc1 ; retrieve measured composite z-score.
Reply | -0.0654

Ask | Param item = COC(=O)C(CC#Cc1ccc2c(c1)[C@]1(C(=O)N2)[C@H](C(=O)Nc2nc3ccccc3s2)[C@H]2C(=O)O[C@H](c3ccccc3)[C@H](c3ccccc3)N2[C@@H]1c1ccc(OCCO)cc1)C(=O)OC ; retrieve measured composite z-score.
Reply | 0.0973

---

Please provide measured z-score for the entries that follow.
# assay-explanation: basal HepG2 mitochondrial membrane potential changes, profiling panel, cell-based, JC-1 fluorescence, 24 h, 100 nL compound (AID 1167); also: test concentration not given here
# test-parameters: higher = more signal
Provide a numeric answer; units are not to be included.

Ask | Param item = CC(C)C[C@@H]1NC(=O)[C@@H]2C[C@H](C(=O)NCCCCCC[N+](C)(C)C)[C@H](c3cccc(OCCO)c3)N2C1=O ; retrieve measured z-score.
Reply | -1.48

Ask | Param item = C=CCNC(=O)[C@H]1[C@@H]2C(=O)O[C@@H](c3ccccc3)[C@@H](c3ccccc3)N2[C@@H](c2ccc(OCCO)cc2)[C@]12C(=O)N(C(=O)OCCOC)c1ccc(C#Cc3ccc(OC)cc3)cc12 ; retrieve measured z-score.
Reply | -1.22

Ask | Param item = O=c1cccc(-c2ccc(F)cc2)o1 ; retrieve measured z-score.
Reply | 0.0366

Ask | Param item = O=C1[C@@]23C=C(Br)[C@H](C[C@@H]2COC3)[C@@]12CO2 ; retrieve measured z-score.
Reply | -1.73

Ask | Param item = CCOC(=O)C=Cc1cc(F)ccc1O ; retrieve measured z-score.
Reply | -1.19

---

# assay-explanation: cell viability in Huh7 cells, primary screen, cytotoxicity control for HCV replication inhibitor project, CellTiter-Glo luminescence, basal, 48 h (AID 1143);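 also: Huh7 hepatoma cells carrying a hepatitis C replication reporter with no stimulus; test concentration not given here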
# test-parameters: Huh7 HCV replicon, higher = more signal, called active from +8 up or from −8 down
assay-metric: z-score
Provide a numeric answer; units are not to be included.

Ask | Param item = CC(=O)N1CC(C(O)C2C=CC3C(=O)NC(=O)C3N2Nc2ccc(Cl)cc2Cl)c2ccccc21 (centres undefined) ; retrieve measured z-score.
Reply | -0.0847

Ask | Param item = CCOC(=O)C[C@H]1[C@H](OC(=O)c2ccc(-c3ccccc3)cc2)[C@@H](NC(=O)Cc2ccc(OC)cc2)c2cc(OCCCO)ccc2N1C(=O)Cc1ccc(OC)cc1 ; retrieve measured z-score.
Reply | 0.247

Ask | Param item = O=C1C2C=CC(C(O)c3ccc(I)cc3)N(Nc3ccccc3)C2C(=O)N1c1ccccc1 (centres undefined) ; retrieve measured z-score.
Reply | -0.167

Ask | Param item = O=C1[C@@H]2[C@@H](CC(COc3ccccc3)=C3[C@@H](CCc4ccccc4)OB(O)C[C@@H]32)C(=O)N1Cc1ccccc1 ; retrieve measured z-score.
Reply | -1.91

---

# assay-explanation: anti-His antibody binders, primary screen, artefact control for SMM control protein annotation, biochemical, small-molecule microarray, 635 nm fluorescence (AID 1128);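 also: score merges feature fluorescence with signal-to-noise for each printed compound spot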
# test-parameters: anti-His Alexa647 antibody binding, higher = more signal
Tag: 1 if measured composite z-score is not below 2, 0 if it is.

Ask | Does composite z-score meet or surpass 2 for COc1cc2c(cc1OC)CN(C(=O)[C@@H]1[C@H]3C(=O)O[C@H](c4ccccc4)[C@H](c4ccccc4)N3[C@H](c3ccc(O)cc3)[C@@]13C(=O)Nc1ccc(C#CCCO)cc13)CC2 ?
Reply | 0

Ask | Does composite z-score meet or surpass 2 for CO[C@H]1O[C@H](CO)[C@@H](OC(=O)Nc2cccc(F)c2)[C@H](OC(=O)Nc2ccccc2-c2ccccc2)[C@H]1OC(=O)Nc1ccccc1-c1ccccc1 ?
Reply | 1

Ask | Does composite z-score meet or surpass 2 for CN1C(=O)C2C(C1=O)C1C=C(CCCO)C2C(C2CC2)N1Cc1cc2c(cc1Br)OCO2 (centres undefined) ?
Reply | 1

Ask | Does composite z-score meet or surpass 2 for CCC(CC)C(O)C1C=CC2C(=O)N(c3ccccc3)C(=O)C2N1Nc1ccc([N+](=O)[O-])cc1 (centres undefined) ?
Reply | 0

Ask | Does composite z-score meet or surpass 2 for CC(C)CNC(=O)[C@@]1(c2ccc([N+](=O)[O-])cc2)CC(=O)N(C2CCCCC2)[C@@H]1c1ccc(CO)cc1 ?
Reply | 0

Ask | Does composite z-score meet or surpass 2 for Cc1ccc(S[C@]2(C(=O)NCC(C)C)CC(=O)N(C3Cc4ccccc4C3)[C@@H]2c2ccc(CO)cc2I)cc1 ?
Reply | 0

Ask | Does composite z-score meet or surpass 2 for COCC1C2CC[C@H]3C(OCc4ccc(OC)cc4)OC[C@]4(C)[C@H]3C2=C(CN4C(=O)OC(C)(C)C)[C@H](C)C1COC (some centres undefined) ?
Reply | 0

Ask | Does composite z-score meet or surpass 2 for CCCC=C(CCC)[C@@H](NC(=O)CCc1ccccc1)c1ccc(C(F)(F)F)cc1 ?
Reply | 0

Ask | Does composite z-score meet or surpass 2 for CCOC(=O)C[C@H]1[C@H](OC(=O)c2ccccc2-c2ccccc2)[C@@H](NC(=O)c2ccc3ccccc3n2)c2cc(OCCCO)ccc2N1C(=O)c1ccccc1 ?
Reply | 0

Ask | Does composite z-score meet or surpass 2 for C=CC1c2cc(O)c(OC)cc2CCN1Cc1ccc([N+](=O)[O-])o1 (centres undefined) ?
Reply | 1

Ask | Does composite z-score meet or surpass 2 for CC(C)CNC(=O)[C@@H]1c2ccccc2C(=O)N(C2CCCCC2)[C@H]1c1ccc(CO)cc1 ?
Reply | 0

Ask | Does composite z-score meet or surpass 2 for C=C(C)C1CCC(C(O)C2C=CC3C(=O)N(C)C(=O)C3N2Nc2cc(OC)c(OC)c(OC)c2)CC1 (centres undefined) ?
Reply | 0

Ask | Does composite z-score meet or surpass 2 for O=C1OCCC=C[C@H]2OC34C=CCN(c5ccc(Cl)cc5)C(=O)[C@H]3N(CCCCCCO)C(=O)[C@@H]4C12 (some centres undefined) ?
Reply | 0

Ask | Does composite z-score meet or surpass 2 for CCCCCN1CC=CC23O[C@@H]4C=CCOC(=O)[C@@H]4[C@H]2C(=O)N(CCO)[C@@H]3C1=O (some centres undefined) ?
Reply | 0

Ask | Does composite z-score meet or surpass 2 for Cc1ccc(C(C)CC(O)C2C=CC3C(=O)N(c4ccccc4)C(=O)C3N2Nc2ccc(C#N)cc2)o1 (centres undefined) ?
Reply | 0

Ask | Does composite z-score meet or surpass 2 for CC1CC/C=C\[C@H]2OC34C=CCN(CCN5CCOCC5)C(=O)[C@H]3N(C(C)CO)C(=O)[C@@H]4C2C(=O)O1 (some centres undefined) ?
Reply | 0

Ask | Does composite z-score meet or surpass 2 for Cc1ccccc1C(O)C1C=CC2C(=O)N(c3ccccc3)C(=O)C2N1Nc1ccc([N+](=O)[O-])cc1 (centres undefined) ?
Reply | 0

Ask | Does composite z-score meet or surpass 2 for C=C(COC)C(=O)CC[C@H](OC(=O)c1cccnc1)c1ccc(CO)o1 ?
Reply | 0

Ask | Does composite z-score meet or surpass 2 for COCCOC(=O)N1C(=O)[C@@]2(c3ccccc31)[C@H](c1ccc(OCCO)cc1)N1[C@H](c3ccccc3)[C@H](c3ccccc3)OC(=O)[C@H]1[C@@H]2C(=O)N1CCCCCCC1 ?
Reply | 1

Ask | Does composite z-score meet or surpass 2 for O=C(O)[C@@H]1C[C@@H]2C(=O)N3CCC[C@H]3C(=O)N2[C@@H]1c1cccc(OCCO)c1 ?
Reply | 1

Ask | Does composite z-score meet or surpass 2 for O=C1O[C@H](c2ccccc2)[C@H](c2ccccc2)N2[C@H]1[C@@H](C(=O)O)[C@]1(C(=O)Nc3ccc(C#CC4(O)CCCCCC4)cc31)[C@H]2c1ccc(O)cc1 ?
Reply | 0

Ask | Does composite z-score meet or surpass 2 for COc1ccc(NC(=O)O[C@H]2[C@@H]3OC(=O)[C@H](Cc4cccc(Br)c4)C/C=C/C[C@@H](Cc4cccc(Br)c4)C(=O)O[C@H]3[C@@H](OC)O[C@@H]2CO)cc1 ?
Reply | 0

Ask | Does composite z-score meet or surpass 2 for CN1C(=O)C2C(C1=O)C1C=C(CCCO)C2C(c2cccs2)N1Cc1cc2c(cc1Br)OCO2 (centres undefined) ?
Reply | 0

Ask | Does composite z-score meet or surpass 2 for CC(=O)n1cc(C(O)C2C=CC3C(=O)N(c4ccccc4)C(=O)C3N2Nc2ccc(C(C)C)cc2)c2ccccc21 (centres undefined) ?
Reply | 0

Ask | Does composite z-score meet or surpass 2 for COCCOC(=O)N1C(=O)[C@@]2(c3cc(C#CCCO)ccc31)[C@H](C(=O)N1CCCCCCC1)[C@H]1C(=O)O[C@H](c3ccccc3)[C@H](c3ccccc3)N1[C@@H]2c1ccccc1OCCO ?
Reply | 0

Ask | Does composite z-score meet or surpass 2 for [N-]=[N+]=Nc1ccccc1C[C@]1(C(=O)NCc2ccccc2)COC(c2ccc(OCCCO)cc2)=N1 ?
Reply | 0

Ask | Does composite z-score meet or surpass 2 for NC(=O)[C@H]1[C@@H]2C(=O)O[C@@H](c3ccccc3)[C@@H](c3ccccc3)N2[C@@H](c2ccc(O)cc2)[C@]12C(=O)Nc1ccc(C#CC3=CCCCC3)cc12 ?
Reply | 1
